Each recorded value in this set is attributed to patent US20220062341A1.

Consider the following binders and their measured CD3-recruiting activity (CD3-positive proportion, N=3), CD3-stably expressing 293T cells readings.
# Test System: CD3 subunits (CD3E, CD3G, CD3D, CD3Z) (human, UniProt P07766 23-207; P09693 23-182; P04234 22-171; P20963 22-164)
# Sequence (P07766 23-207, chain 1 of 4): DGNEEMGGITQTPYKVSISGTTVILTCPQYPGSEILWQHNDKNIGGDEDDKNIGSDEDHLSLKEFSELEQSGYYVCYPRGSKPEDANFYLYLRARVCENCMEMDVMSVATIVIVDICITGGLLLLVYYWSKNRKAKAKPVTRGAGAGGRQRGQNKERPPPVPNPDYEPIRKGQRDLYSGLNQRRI
# Sequence (P09693 23-182, chain 2 of 4): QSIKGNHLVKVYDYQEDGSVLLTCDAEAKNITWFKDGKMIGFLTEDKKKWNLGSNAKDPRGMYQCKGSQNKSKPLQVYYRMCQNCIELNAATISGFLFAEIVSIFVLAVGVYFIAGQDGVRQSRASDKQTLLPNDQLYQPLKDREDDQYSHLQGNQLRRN
# Sequence (P04234 22-171, chain 3 of 4): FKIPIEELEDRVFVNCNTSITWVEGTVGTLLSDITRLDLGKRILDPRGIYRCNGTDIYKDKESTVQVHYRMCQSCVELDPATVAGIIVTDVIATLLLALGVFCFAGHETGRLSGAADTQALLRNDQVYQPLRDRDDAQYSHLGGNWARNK
# Sequence (P20963 22-164, chain 4 of 4): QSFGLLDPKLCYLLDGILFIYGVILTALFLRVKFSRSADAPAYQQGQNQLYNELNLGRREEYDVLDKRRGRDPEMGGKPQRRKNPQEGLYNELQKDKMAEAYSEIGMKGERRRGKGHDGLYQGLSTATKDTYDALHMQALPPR
# Procedure Text: cell-based or functional assay

Known results for binders:
modified TCR consisting of β11 and α7 (TCR) TCR alpha: SNKSDFACANAFNNSIIPEDTFFPSPESSCDVKLVEKSFETDTNLNFQNLSVIGFRILLLKVAGFNLLMTLRLWSS TCR beta: EWTQDRAKPVTQIVSAEAWGRADCGFTSESYQQGVLSATILYEILLGKATLYAVLVSALVLMAMVKRKDSRG    ≥ 20%
modified TCR consisting of β10 and α10 (TCR) TCR alpha: IPEDTFFPSPESSCDVKLVEKSFETDTNLNFQNLSVIGFRILLLKVAGFNLLMTLRLWSS TCR beta: YGLSENDEWTQDRAKPVTQIVSAEAWGRADCGFTSESYQQGVLSATILYEILLGKATLYAVLVSALVLMAMVKRKDSRG    ≥ 20%

Attention now turns to another entry.
Input: Reported CD3-recruiting activity (CD3-positive proportion, N=3), CD3-stably expressing 293T cells for modified TCR of the combination of βCR and α3 (TCR) TCR alpha: NVSQSKDSDVYITDKTVLDMRSMDFKSNSAVAWSNKSDFACANAFNNSIIPEDTFFPSPESSCDVKLVEKSFETDTNLNFQNLSVIGFRILLLKVAGFNLLMTLRLWSS TCR beta: EDLKNVFPPEVAVFEPSEAEISHTQKATLVCLATGFYPDHVELSWWVNGKEVHSGVSTDPQPLKEQPALNDSRYCLSSRLRVSATFWQNPRNHFRCQVQFYGLSENDEWTQDRAKPVTQIVSAEAWGRADCGFTSESYQQGVLSATILYEILLGKATLYAVLVSALVLMAMVKRKDSRG : what is it?
Output: ≥ 80%
